target: T1, pKal (Homo sapiens, UniProt P03952); experiment: Fab fragments (small scale) tested for inhibition against human pKal in an in vitro protease cleavage assay; format: biochemical; conditions: Table 9
T1 construct: two disulfide linked polypeptides; a heavy chain of approximately 52 kDa and a catalytic domain of approximately 34 kDa; host or cells: human plasma
T1 sequence (P03952 391-638 limits assumed): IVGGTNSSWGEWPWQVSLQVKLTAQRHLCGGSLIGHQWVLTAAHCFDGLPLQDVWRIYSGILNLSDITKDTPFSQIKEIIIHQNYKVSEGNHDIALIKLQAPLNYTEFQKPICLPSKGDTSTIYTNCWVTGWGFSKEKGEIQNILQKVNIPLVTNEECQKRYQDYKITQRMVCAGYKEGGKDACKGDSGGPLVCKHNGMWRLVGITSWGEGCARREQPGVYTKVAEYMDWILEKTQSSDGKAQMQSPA
T1 sequence (P03952 20-390 partner limits assumed): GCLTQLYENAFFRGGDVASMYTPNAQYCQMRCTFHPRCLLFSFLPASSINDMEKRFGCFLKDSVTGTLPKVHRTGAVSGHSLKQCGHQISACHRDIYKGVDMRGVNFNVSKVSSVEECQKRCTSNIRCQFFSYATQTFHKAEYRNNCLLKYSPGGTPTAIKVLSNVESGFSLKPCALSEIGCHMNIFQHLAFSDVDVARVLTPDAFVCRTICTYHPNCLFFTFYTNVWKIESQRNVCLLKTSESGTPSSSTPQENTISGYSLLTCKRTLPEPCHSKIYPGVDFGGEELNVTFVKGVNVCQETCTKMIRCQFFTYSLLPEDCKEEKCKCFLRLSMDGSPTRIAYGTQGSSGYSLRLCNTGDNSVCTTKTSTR
measurementLabel: Inhibit as a Fab?

INSERT INTO results (molecule, measuredvalue) VALUES
  ('X66-C03: single point mutation of M142-H08 (P1); HV-CDR3 GGLLLWFLELKSNYFDY (antibody, V domains shown) VL: QDIQMTQSPSSLSAFVGDRVTITCRASQPIDNYLNWYHQKPGKAPKLLIYAASRLQSGVPSRLSGSGFGTDFTLTISSLQPEDFGNYYCQQSYTVPYTFGGGTKVEIR VH: EVQLLESGGGLVQPGGSLRLSCAASGFTFSAYSMIWVRQAPGKGLEWVSYIRPSGGRTTYADSVKGRFTISRDNSKNTLYLQMNSLRAEDTAVYYCARGGLLLWFLELKSNYFDYWGQGTLVTVSSASTKGPSVFPLAPSSKS', 'No'),
  ('X68-D10: single point mutation of M142-H08 (P3); HV-CDR3 GGLLLPFRELKSNYFDY (antibody, V domains shown) VL: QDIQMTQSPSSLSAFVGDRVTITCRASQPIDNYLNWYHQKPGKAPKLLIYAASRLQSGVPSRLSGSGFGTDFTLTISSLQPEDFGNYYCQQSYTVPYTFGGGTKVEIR VH: EVQLLESGGGLVQPGGSLRLSCAASGFTFSAYSMIWVRQAPGKGLEWVSYIRPSGGRTTYADSVKGRFTISRDNSKNTLYLQMNSLRAEDTAVYYCARGGLLLPFRELKSNYFDYWGQGTLVTVSSASTKGPSVFPLAPSSKS', 'No');
